Tested on: Bulbar Conjunctiva (conjunctival hyperemia)
Assay: Guinea pig conjunctival hyperemia model
Type: in vivo
Conditions: cumulative incidence; percent of eyes scoring +2 or more; scored 1, 2, 3, 4 hours after instillation
readout name: Guinea Pig Hyperemia (Cumulative over 4 hours) (%)

• O=S(=O)(c1cccc2c(Cl)nccc12)N1CCNCC1 = 10
• CC1CN(S(=O)(=O)c2cccc3cnccc23)CCN1 (stereo not shown) = 0
• CC1CN(S(=O)(=O)c2cccc3cnccc23)C(C)CN1 (stereo not shown) = 20
• O=S(=O)(c1cccc2cnccc12)N1CCCNCC1 = 75
